experiment: Physicochemical properties
outcomeMeasure: logP
Answers are plain numbers.

Q: Specify logP for Cc1cnc(NC(=O)c2cc(Oc3cnc(C(=O)N(C)C)nc3)c3cc(C)oc3c2)cn1 [PB‐201] and stop.
A: 1.38

###

test: Apparent permeability in Caco-2 monolayers; type: in vitro ADME; settings: human; Caco‐2, 10 μM, 2 h; read-out: P app,AP→BL, without inhibitor
Answer each item with its documented Papp A→B at 2 h, 10 μM.
Just so you know, I need the unit written after the number.

CC(=O)O[C@H]1C(=O)[C@@]2(C)[C@H]([C@H](OC(=O)c3ccccc3)[C@]3(O)C[C@H](OC(=O)[C@H](O)[C@@H](NC(=O)c4ccccc4)c4ccccc4)C(C)=C1C3(C)C)[C@]1(OC(C)=O)CO[C@@H]1C[C@@H]2O = 0.0798 ×10⁻⁶ cm/s

// next item, Papp A→B at 2 h, 10 μM requested
Q: Specify Papp A→B at 2 h, 10 μM for CC(C)(C)NCC(O)COc1cccc2c1CC(O)C(O)C2 (centres unmarked) and stop.
A: 0.721 ×10⁻⁶ cm/s

###

test: Apparent permeability in Caco-2 monolayers; type: in vitro ADME; details: human; Caco‐2, 10 μM, 2 h; read-out: P app,BL→AP, without inhibitor
outcomeMeasure: Papp B→A at 2 h, 10 μM (×10⁻⁶ cm/s)
One number for each entry, in ×10⁻⁶ cm/s.

The cases that follow already have their Papp B→A at 2 h, 10 μM on record.
CC(=O)O[C@H]1C(=O)[C@@]2(C)[C@H]([C@H](OC(=O)c3ccccc3)[C@]3(O)C[C@H](OC(=O)[C@H](O)[C@@H](NC(=O)c4ccccc4)c4ccccc4)C(C)=C1C3(C)C)[C@]1(OC(C)=O)CO[C@@H]1C[C@@H]2O [Taxol] = 0.56
CC(C)(C)NCC(O)COc1cccc2c1CC(O)C(O)C2 (stereo not drawn) [Nadolol] = 0.634

Q: Specify Papp B→A at 2 h, 10 μM for CC(C)NCC(O)COc1cccc2ccccc12 (stereo not drawn) [Propranolol] and stop.
A: 23.1

###

test: Clinical pharmacokinetic studies of PB-201; type: in vivo; conditions: human, urine, oral; humans, from a clinical trial, source Measured; read-out: Typical renal clearance (converted)
outcomeMeasure: CL renal (mL/min)
Answers are plain numbers, in mL/min.

Q: Specify CL renal for `Cc1cnc(NC(=O)c2cc(Oc3cnc(C(=O)N(C)C)nc3)c3cc(C)oc3c2)cn1` and stop.
A: 1.65

###

assay: Physicochemical properties
outcomeMeasure: pKa
One number for each entry.

Q: Specify pKa for `Cc1cnc(NC(=O)c2cc(Oc3cnc(C(=O)N(C)C)nc3)c3cc(C)oc3c2)cn1` and stop.
A: 10.4

###

tested on: P-gp; construct: endogenous in cells; host or cells: Caco-2; assay: P-gp substrate assessment in Caco-2 monolayers with verapamil; type: in vitro ADME; conditions: human, Caco-2, with verapamil (concentration not stated); read-out: P app,BL→AP, with inhibitor
outcomeMeasure: Papp B→A at 2 h, 10 μM

The cases that follow already have their Papp B→A at 2 h, 10 μM on record.
CC(C)NCC(O)COc1cccc2ccccc12 (stereo not drawn) [Propranolol] = 21.9 ×10⁻⁶ cm/s
CC(=O)O[C@H]1C(=O)[C@@]2(C)[C@H]([C@H](OC(=O)c3ccccc3)[C@]3(O)C[C@H](OC(=O)[C@H](O)[C@@H](NC(=O)c4ccccc4)c4ccccc4)C(C)=C1C3(C)C)[C@]1(OC(C)=O)CO[C@@H]1C[C@@H]2O [Taxol] = 1.28 ×10⁻⁶ cm/s

// next item, Papp B→A at 2 h, 10 μM requested
Q: Provide Papp B→A at 2 h, 10 μM, tested on P-gp, for CC(C)(C)NCC(O)COc1cccc2c1CC(O)C(O)C2 (stereo not drawn) [Nadolol] .
A: 0.364 ×10⁻⁶ cm/s
